Would you mind telling me the reported bioavailability of each entry?
# Protocol: Oral bioavailability in mouse at 2 mg/kg
# Type: ADME, organism-based
# Setup Conditions: in vivo
Output spec: scalar in %, unitless text.

// bioavailability value for CC(CC(=O)NC1=C(C(=O)O)CCCC1)c1csc(-c2ccc(O)cc2Cl)n1 (stereo unspecified) : 54

Cc1c(CCC(=O)Nc2ccccc2C(=O)O)cnn1-c1ccc(O)cc1 yielded bioavailability of 2

Entry O=C(CCc1ccc(-c2ccccc2)cc1)NC1=C(C(=O)O)CCC1 — recorded bioavailability = 64

// sample O=C(CCc1ccc(-c2ccccc2)cc1)Nc1ccccc1C(=O)O , its bioavailability was 13

Notebook: O=C(CCc1csc(-c2ccc(O)cc2Cl)n1)Nc1ccccc1C(=O)O , bioavailability read as 36

Lab book: bioavailability of Cc1c(C[C@@H](C)C(=O)NC2=C(C(=O)O)CCCC2)cnn1-c1ccc(O)cc1 noted as 52
